- experimental-details: COS7 lysate on small-molecule microarray, probe aHis, 635 nm (AID 1123);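 further: z-score combines 667nm fluorescence intensity with signal-to-noise per printed compound spot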
- condition-notes: COS7 cell lysate, fluorescence, higher = more signal
Could you label it Y if measured composite z-score is 2 or higher, and N otherwise?

-- ask Threshold query (composite z-score >= 2) on "C=C(CCCC)/C(=C/C[C@@H](OC(C)=O)c1cccc(OCCO)c1)c1cc(C(=O)OC)ccc1OC"
-- reply N

-- ask Threshold query (composite z-score >= 2) on "C=CC[C@]12N=C(c3ccc(OCCCO)cc3)O[C@H]1c1ccccc1N(CCC)C2=O"
-- reply Y

-- ask Threshold query (composite z-score >= 2) on "COCCCNC(=O)[C@]1(Cc2ccccc2N=[N+]=[N-])N=C(c2ccc(OCCCO)cc2)O[C@@H]1c1ccccc1"
-- reply Y

-- ask Threshold query (composite z-score >= 2) on "CCOC(=O)C[C@H]1[C@H](OC(=O)c2ccc(-c3ccccc3)cc2)[C@@H](NC(=O)C2CCCCC2)c2cc(OCCCO)ccc2N1C(=O)Cc1ccc(OC)cc1"
-- reply N

====

Readings of composite z-score for the listed compounds
- experimental-details: binders from COS7 lysate, DM2A8 probe, primary screen, torsin A project, cell lysate, small-molecule microarray, fluorescence 635/667 (AID 1065)
- condition-notes: higher = more signal, COS7 lysate expressing mutant human TOR1A
Just the number, please.

| compound-structure | composite z-score |
| --- | --- |
| CC(C)N1C(=O)[C@@]2(Cc3ccccc31)c1ccccc1C(=O)N(Cc1ccccc1C(F)(F)F)[C@H]2c1ccc(CO)cc1 | 0.0613 |

-- ask In one line, give reported composite z-score of the entry "O=C(CS)NCCCCCCNC(=O)[C@H]1C[C@H]2C(=O)NCC(=O)N2[C@H]1c1cccc(OCCO)c1" .
-- reply 0.0436

-- ask In one line, give reported composite z-score of the entry "COC(=O)[C@@]1(Cc2ccc(OC)cc2)[C@H]2c3cc(C(=O)N(C)C)n(Cc4c(CO)[nH]cc(C)c4=O)c3C[C@H]2CN1C(=O)c1ccccc1" .
-- reply 0.249

====

- System: glycogen synthase kinase-3 (GSK3A per assay name; protocol says GSK3B)
- experimental-details: GSK3 binders on small-molecule microarrays, primary screen, biochemical, small-molecule microarray, 635 nm fluorescence, GSK3A (AID 1103); further: the record names both GSK3A and GSK3B
- condition-notes: small-molecule microarray binding, fluorescence 635 nm; higher = more signal
reported-endpoint: composite z-score
Just the number, please.

| compound | composite z-score |
| --- | --- |
| COCCOC(=O)N1C(=O)[C@@]2(c3cc(C#CCNC(N)=O)ccc31)[C@H](c1ccc(O)cc1)N1[C@H](c3ccccc3)[C@H](c3ccccc3)OC(=O)[C@H]1[C@@H]2C(=O)N1CCc2cc(OC)c(OC)cc2C1 | -0.447 |
| CC(C)(C)OC(=O)CC[C@@]1(C(=O)N2CCOCC2)N=C(c2ccc(OCCCO)cc2)O[C@@H]1c1ccccc1CN=[N+]=[N-] | 0.818 |
| CCCCCCc1nc(Cc2cc(OC)c(OC)c(OC)c2)c(C)c2c1[Si](C(C)C)(C(C)C)OC2 | 0.104 |

-- ask In one line, give reported composite z-score of the entry "C=CC[C@H](O)c1ccc(O)c(F)c1" .
-- reply -1.13

-- ask In one line, give reported composite z-score of the entry "C=C(COC)C(=O)CC[C@H](OC(C)=O)c1ccccc1OCCO" .
-- reply -0.41

-- ask In one line, give reported composite z-score of the entry O=C1C2C=CC(C(O)C3CC=CCC3)N(Nc3ccc([N+](=O)[O-])cc3)C2C(=O)N1c1ccccc1 (centres undefined) .
-- reply 1.1

-- ask In one line, give reported composite z-score of the entry "CC(C)(C)OC(=O)CC[C@@]1(C(N)=O)N=C(c2ccc(OCCCO)cc2)O[C@@H]1c1ccccc1CN=[N+]=[N-]" .
-- reply 1.1

-- ask In one line, give reported composite z-score of the entry "C=CCNC(=O)[C@H]1[C@@H]2C(=O)O[C@@H](c3ccccc3)[C@@H](c3ccccc3)N2[C@@H](c2ccc(O)cc2)[C@]12C(=O)N(C(=O)OCCOC)c1ccc(C#Cc3ccc(OC)cc3)cc12" .
-- reply 1.08

-- ask In one line, give reported composite z-score of the entry "O=C(CS)NCCCCCCNC(=O)[C@H]1C[C@H]2C(=O)NCC(=O)N2[C@H]1c1cccc(OCCO)c1" .
-- reply -0.21

-- ask In one line, give reported composite z-score of the entry "[N-]=[N+]=NCc1ccccc1[C@H]1OC(c2ccc(OCCCO)cc2)=N[C@@]1(CCS(=O)(=O)c1ccccc1)C(=O)NCCN1CCOCC1" .
-- reply 0.844

-- ask In one line, give reported composite z-score of the entry CC1CC/C=C\[C@H]2OC34C=CCN(C(C)C)C(=O)[C@H]3N(C(C)CO)C(=O)[C@@H]4C2C(=O)O1 (some centres undefined) .
-- reply -0.297

-- ask In one line, give reported composite z-score of the entry "COc1ccc([Si](C)(C)[C@@H]2[C@@H](CC(=O)N3Cc4ccccc4C[C@H]3CO)O[C@]3(C(=O)N(Cc4ccc(I)cc4)c4ccccc43)[C@H]2C)cc1" .
-- reply 0.66

-- ask In one line, give reported composite z-score of the entry "O=C1O[C@H](c2ccccc2)[C@H](c2ccccc2)N2[C@H]1[C@@H](C(=O)N1CCN(c3ncccn3)CC1)[C@]1(C(=O)Nc3ccc(C#CC4(O)CCCCCC4)cc31)[C@H]2c1ccc(O)cc1" .
-- reply 1

-- ask In one line, give reported composite z-score of the entry "COc1ccc(CCNC(=O)[C@@H]2c3ccccc3C(=O)N(Cc3cc(F)cc(C(F)(F)F)c3)[C@H]2c2ccc(CO)cc2)cc1" .
-- reply 0.765

====

- experimental-details: A549 cell viability effects, profiling panel, calcein-AM fluorescence, 48 h, basal (AID 1162); further: test concentration not given here
- condition-notes: higher = more signal
reported-endpoint: z-score
Just the number, please.

| molecule | numeric-value |
| --- | --- |
| O=C1C2C=CC(C(O)C3CCCCC3)N(Nc3ccccc3F)C2C(=O)N1c1ccccc1 (stereo not drawn) | -0.112 |
| CN1C(=O)C2CC=C(C3=CCO[C@@H]3[C@H]3CCCN3S(=O)(=O)c3ccccc3[N+](=O)[O-])CC2C1=O (stereo partly drawn) | -0.477 |

Now look at this one.
-- ask In one line, give reported z-score of the entry CN1C(=O)C2C=CC(C(O)c3cccs3)N(N(c3ccccc3)c3ccccc3)C2C1=O (stereo not drawn) .
-- reply -0.404

====

- experimental-details: splicing luciferase reporter signal modulators, primary screen, spliceosome inhibition project, cell-based, HEK293, splice +/- reporter (AID 1101);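 further: HEK293 cells carrying a splicing-competent luciferase reporter gene; test concentration not given here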
- condition-notes: luminescence, 24 h, higher = more signal, called active from +8 up or from −8 down
Just so you know, the groups by z-score go like this: lower bin (below -1), middle bin (-1 to below 0.5), upper bin (0.5 or more)

Field: example entries. Status: answers known.
| molecule | assigned-label |
| --- | --- |
| O=C1NC(=O)C2C1C=CC(C(O)c1ccc(F)cc1)N2Nc1ccc(Cl)cc1Cl (stereo unspecified) | upper bin |
| COc1ccc(C#Cc2ccc3c(c2)[C@]2(C(=O)N3)[C@H](c3ccccc3OCCO)N3[C@H](c4ccccc4)[C@H](c4ccccc4)OC(=O)[C@H]3[C@@H]2C(=O)NC[C@H](O)c2ccccc2)cc1 | lower bin |

-- ask Form field 'band' for "C=CCOC(=O)[C@@H]1[C@H]2C(=O)O[C@H](c3ccccc3)[C@H](c3ccccc3)N2[C@H](c2ccc(OCCOC(=O)[C@H]3C[C@H]4C(=O)N[C@@H](CCCCN(C)C)C(=O)N4[C@H]3c3cccc(OCCO)c3)cc2)[C@@]12C(=O)Nc1ccccc12"
-- reply middle bin

-- ask Form field 'band' for "CC(C)[Si]1(C(C)C)OCc2cc(-c3ccc(-c4ccc(Cl)c(Cl)c4)o3)nc(-c3ccc(Oc4ccccc4)cc3)c21"
-- reply lower bin

====

- experimental-details: binders of probe aFGF10 on microarray, primary screen, stem cell growth factor project, biochemical, small-molecule microarray, fluorescence 635/667 (AID 1071);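 further: score merges 667 nm spot intensity and signal to noise from triplicate slides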
- condition-notes: higher = more signal
Could you label it Y if measured composite z-score is 0.3 or higher, and N otherwise?

Field: example entries. Status: answers known.
| compound | assigned-label |
| --- | --- |
| C=C1C(=O)C=C2CN(C(=O)c3ccccc3)[C@@](Cc3ccc(F)cc3)(C(=O)OC)[C@@H]12 | Y |
| CN(C)CCCCCCNC(=O)[C@@H]1C[C@@H]2C(=O)N[C@@H](CCCC[N+](C)(C)C)C(=O)N2[C@@H]1c1cccc(OCCO)c1 | N |
| C=C(C(=O)CC[C@@H](OC(=O)c1ccccc1-c1ccccc1C(=O)O)c1ccc(CO)o1)C(C)C | Y |
| CCCCCCc1nc(Cc2cc(OC)c(OC)c(OC)c2)c(C)c2c1[Si](C(C)C)(C(C)C)OC2 | N |
| O=C1C2C=CC(C(O)c3ccccn3)N(Nc3ccc([N+](=O)[O-])cc3)C2C(=O)N1c1ccccc1 (stereo not drawn) | Y |
| CC[C@@H]1C=C(C(=O)O)[C@H](c2cccc(Cl)c2)N1S(=O)(=O)c1ccc(C)cc1 | Y |
| C=CCN1C(=O)[C@]2(O[C@H](CCO)[C@@H]([Si](C)(C)c3ccc(OC)cc3)[C@@H]2C)c2cc(N3C(=O)c4ccccc4Oc4ccccc43)ccc21 | Y |
| COc1ccc([Si](C)(C)[C@H]2[C@H](CC(=O)N(CCO)Cc3ccccc3)O[C@@]3(C(=O)N(Cc4cccc(N5CCCCC5=O)c4)c4ccccc43)[C@@H]2C)cc1 | N |
| CCCNC(=O)[C@@]1(Sc2ccc(C)cc2)CC(=O)N(Cc2cc(C(F)(F)F)cc(C(F)(F)F)c2)[C@@H]1c1ccc(CO)cc1 | N |
| CCN1C(=O)C2CC(=O)C3C(CN(S(=O)(=O)c4ccc(C)cc4)C3c3ccc(C)cc3)C2C1=O (stereo not drawn) | N |

-- ask Threshold query (composite z-score >= 0.3) on "COCCCNC(=O)[C@@]1(Cc2ccccc2I)c2ccccc2C(=O)N(Cc2ccccc2OC)[C@H]1c1ccc(CO)cc1"
-- reply Y

-- ask Threshold query (composite z-score >= 0.3) on "O=C1O[C@@H](c2ccccc2)[C@@H](c2ccccc2)N2[C@@H](c3ccccc3OCCO)[C@]3(C(=O)Nc4ccc(C#CC5(O)CCCCCC5)cc43)[C@@H](C(=O)N3CCCCCCC3)[C@H]12"
-- reply Y

-- ask Threshold query (composite z-score >= 0.3) on "CC(C)(C)OC(=O)CC[C@@]1(C(=O)N2CCOCC2)N=C(c2ccc(OCCCO)cc2)O[C@@H]1c1ccccc1CN=[N+]=[N-]"
-- reply Y

-- ask Threshold query (composite z-score >= 0.3) on C=CCC(OC(C)=O)[C@@H]1[C@@H](N(Cc2cccc3ccccc23)C(=O)c2ccc(C)cc2)c2cc(OCCCO)ccc2N1C(=O)Cc1ccc2ccccc2c1 (stereo partly drawn)
-- reply N

-- ask Threshold query (composite z-score >= 0.3) on O=C1OCCC/C=C\[C@H]2OC34C=CCN(Cc5ccccc5)C(=O)[C@H]3N(CCO)C(=O)[C@@H]4C12 (stereo partly drawn)
-- reply Y

-- ask Threshold query (composite z-score >= 0.3) on "O=C(CS)NCCCCCCNC(=O)[C@H]1C[C@H]2C(=O)NCC(=O)N2[C@H]1c1cccc(OCCO)c1"
-- reply N

Data credit: PubChem BioAssay
